Molecular target: T1, human 5T4ECDHis (mature protein of SEQ ID NO: 99) (human, UniProt Q13641 32-355)
T1 construct: ECD of human 5T4 (aa 1-355 of Uniprot Q13641) with C-terminal His tag; residues 1-31 are the signal peptide; also called ECD of human 5T4 with a C-terminal His tag
T1 sequence: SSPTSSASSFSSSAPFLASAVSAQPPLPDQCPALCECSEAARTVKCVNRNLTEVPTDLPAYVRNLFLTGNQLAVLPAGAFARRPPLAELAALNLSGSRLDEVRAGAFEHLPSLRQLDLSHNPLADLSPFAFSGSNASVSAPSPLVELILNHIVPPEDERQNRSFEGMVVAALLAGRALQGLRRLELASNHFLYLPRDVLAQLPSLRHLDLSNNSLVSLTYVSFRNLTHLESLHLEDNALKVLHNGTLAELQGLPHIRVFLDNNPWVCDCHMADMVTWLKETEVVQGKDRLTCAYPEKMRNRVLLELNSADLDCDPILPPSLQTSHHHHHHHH
Experiment: BLI cross-block; competitor (immobilised): IgG1-5T4-085-FEAR
# reported corrected association response; entries follow
Recorded Metric: corrected association response (nm)

Binder: IgG1-5T4-226-FEAR (antibody, V domains shown, Monospecific, bivalent human IgG1 kappa with L234F, L235E, D265A, K409R (FEAR); also called IgG1-5T4-226-FEAR-FITC) VH: QVQLQQWGAGLLKPSETLSLTCAVYGGSFSGYYWSWIRQPPGKGLEWIGEIDHSGSTNYNPSLKSRVTISVDTSKNQFSLKLSSVTAADTAVYYCAAWFGELWDYYYGMDVWGQGTTVTVSS VL: EIVLTQSPATLSLSPGERATLSCRASQSVSSFLAWYQQKPGQAPRLLIYDASNRATGIPARFSGSGSGTDFTLTISSLEPEDFAVYYCQQRSNWPLTFGQGTRLEIK
Recorded Metric: corrected association response
Value Observed: 0.07
//
Binder: IgG1-5T4-076-FEAR (antibody, V domains shown, Monospecific, bivalent human IgG1 kappa with L234F, L235E, D265A, K409R (FEAR)) VH: QVQLVQSGAEVKKPGASVKVSCKASGYTFTSYGISWVRQAPGQGLEWMGWISAYNGNTNYAQKLQGRVTMTTDTSTRTAYMELRSLRSDDTAVYYCARDPGYFDWLYGDYWGQGTLVTVSS VL: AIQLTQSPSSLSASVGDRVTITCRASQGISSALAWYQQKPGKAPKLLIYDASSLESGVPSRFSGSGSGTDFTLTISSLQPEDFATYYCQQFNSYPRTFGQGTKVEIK
Recorded Metric: corrected association response
Value Observed: -0.01
//
Binder: IgG1-5T4-127-FEAR (antibody, V domains shown, Monospecific, bivalent human IgG1 kappa with L234F, L235E, D265A, K409R (FEAR)) VH: EVQLLESRGGLVQPGGSLRLSCAASGFTFSSYAMSWVRQAPGKGLEWVSTISGSGGSTYYADSVKGRFTISRDNSKKTLYLQMNSLRAEDTAVYYCAKDWGSGSYPAEYFQHWGQGTLVTVSS VL: EIVLTQSPATLSLSPGERATLSCRASQSVSSYLAWYQQKPGQAPRLLIYDASNRATGIPARFSGSGSGTDFTLTISSLEPEDFAVYYCQQRSNWLMYTFGQGTKLEIK
Recorded Metric: corrected association response
Value Observed: 0
//
Binder: IgG1-5T4-A1-F405L (antibody, V domains shown, Variable region of A1 of WO2007106744 in a human IgG1 backbone with F405L; also called surrogate A1 antibody) VH: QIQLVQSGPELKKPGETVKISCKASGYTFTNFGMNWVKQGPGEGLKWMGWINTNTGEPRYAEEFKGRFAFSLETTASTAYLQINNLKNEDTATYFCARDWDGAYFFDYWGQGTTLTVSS VL: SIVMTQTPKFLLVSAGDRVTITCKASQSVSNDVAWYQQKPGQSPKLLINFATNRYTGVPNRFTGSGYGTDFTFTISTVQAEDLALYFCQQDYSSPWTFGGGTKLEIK
Recorded Metric: corrected association response
Value Observed: 0.07
//
Binder: IgG1-5T4-207-FEAR (antibody, V domains shown, Monospecific, bivalent IgG1 FEAR) VH: QVQLQQWGAGLLKPSETLSLTCAVYGGSFSGYYWTWIRQPPGKGLEWIGEIDHSESTNYNPSLKSRVTISVDTSKNQFSLKLSSVTAADTAVYYCAGWFGELYHYYYGMDVWGQGTTVTVSS VL: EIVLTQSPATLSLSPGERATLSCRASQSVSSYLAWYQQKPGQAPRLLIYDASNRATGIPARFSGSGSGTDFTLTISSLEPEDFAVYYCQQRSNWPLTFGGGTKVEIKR
Recorded Metric: corrected association response
Value Observed: 0.08
//
Binder: IgG1-5T4-085-FEAR (antibody, V domains shown, Monospecific, bivalent human IgG1 kappa with L234F, L235E, D265A, K409R (FEAR)) VH: EVQLLESGGGLVQPGGSLRLSCAASGFTFSSYAMSWVRQAPGKGLEWVSAISGSGGSTYNADSVKGRFTIFRDNSKNTLYLHMNSLRAEDTAVYYCARDPGYNNVEYLDHWGQGTLVTVSS VL: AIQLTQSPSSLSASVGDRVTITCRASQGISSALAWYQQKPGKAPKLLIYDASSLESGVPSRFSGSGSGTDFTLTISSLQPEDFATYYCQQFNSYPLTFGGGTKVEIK
Recorded Metric: corrected association response
Value Observed: -0.01
//
Binder: IgG1-5T4-A3-F405L (antibody, V domains shown, Variable region of A3 of WO2007106744 in a human IgG1 backbone with F405L; also called surrogate A3 antibody) VH: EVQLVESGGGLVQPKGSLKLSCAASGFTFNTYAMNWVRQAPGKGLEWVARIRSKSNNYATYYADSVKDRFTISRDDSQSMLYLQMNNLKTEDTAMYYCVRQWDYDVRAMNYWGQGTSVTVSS VL: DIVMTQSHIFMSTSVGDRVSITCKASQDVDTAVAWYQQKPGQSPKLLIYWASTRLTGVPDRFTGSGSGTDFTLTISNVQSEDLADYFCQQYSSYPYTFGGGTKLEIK
Recorded Metric: corrected association response
Value Observed: -0.01
